experiment: PAF-antagonist activity determined in dog platelets by PAF-binding assay
MEASURED PARAMETER: IC50 (nM)
Number in nM, nothing else.

### Prompt Answer with the recorded IC50 of CCCCC/C(=C\C=C\C(=O)N[C@H](C)CCCc1cccnc1)c1ccc(OC)cc1 only.
### Response 40

----------
tested on: Cavia porcellus; assay: Inhibition of PAF-induced bronchoconstriction in guinea pig after oral administration after two-hour pretreatment time; assay type: functional; conditions: read-out: ID50 (the source's name)
MEASURED PARAMETER: ED50 (mg/kg)
Number in mg/kg, nothing else.

Solved entries:
• Cc1nnc2n1-c1ccc(C#CCCN3C(=O)c4ccccc4C3=O)cc1C(c1ccccc1F)=NC2 = 0.3
• Cc1nnc2n1-c1ccc(C#CCN3C(=O)c4ccccc4C3=O)cc1C(c1ccccc1F)=NC2 = 0.5
• Cc1nnc2n1-c1sc(C#CCn3c(=O)c4ccccc4c4ccccc43)cc1C(c1ccccc1Cl)=NC2 = 0.01

// next item, ED50 requested
### Prompt Answer with the recorded ED50 of Cc1nnc2n1-c1sc(C#CCn3c(=O)n(CCN(C)C)c4ccccc43)cc1C(c1ccccc1Cl)=NC2 only.
### Response 0.2
